Run conditions: in ethanol, 290.5 K
Property measured: solubility (mole fraction)
The response must contain the number and no unit.

Tell me the measured solubility (mole fraction) of "C[N+](C)(C)CCO.[Cl-]" , please.
0.066

* * *

Run conditions: in n-butanol, 326.4 K
Property measured: solubility (mole fraction)
The response must contain the number and no unit.

Tell me the measured solubility (mole fraction) of "C[N+](C)(C)CCOC(=O)CCC(=O)O.[Cl-]" , please.
0.012

* * *

Run conditions: in n-propanol, 274.1 K
Property measured: solubility (mole fraction)
The response must contain the number and no unit.

Tell me the measured solubility (mole fraction) of "CC(=O)[O-].C[N+](C)(C)CCO" , please.
0.11

* * *

Run conditions: in ethanol, 315.3 K
Property measured: solubility (mole fraction)
The response must contain the number and no unit.

Tell me the measured solubility (mole fraction) of "C[N+](C)(C)CCO.[Cl-]" , please.
0.125

* * *

Run conditions: in n-propanol, 309.6 K
Property measured: solubility (mole fraction)

Tell me the measured solubility (mole fraction) of "C[N+](C)(C)CCO.[Cl-]" , please.
0.059

* * *

Run conditions: in n-propanol, 288.9 K
Property measured: solubility (mole fraction)
The response must contain the number and no unit.

Tell me the measured solubility (mole fraction) of "C[N+](C)(C)CCO.[Cl-]" , please.
0.015

* * *

Run conditions: in n-butanol, 276.9 K
Property measured: solubility (mole fraction)

Tell me the measured solubility (mole fraction) of "CC(=O)[O-].C[N+](C)(C)CCO" , please.
0.074

* * *

Run conditions: in n-butanol, 295.4 K
Property measured: solubility (mole fraction)
The response must contain the number and no unit.

Tell me the measured solubility (mole fraction) of "CC(=O)[O-].C[N+](C)(C)CCO" , please.
0.293

* * *

Run conditions: in n-propanol, 302.3 K
Property measured: solubility (mole fraction)
The response must contain the number and no unit.

Tell me the measured solubility (mole fraction) of "C[N+](C)(C)CCO.[Cl-]" , please.
0.039

* * *

Run conditions: in n-propanol, 266.9 K
Property measured: solubility (mole fraction)
The response must contain the number and no unit.

Tell me the measured solubility (mole fraction) of "CC(=O)[O-].C[N+](C)(C)CCO" , please.
0.0394

* * *

Run conditions: in ethanol, 276.6 K
Property measured: solubility (mole fraction)
The response must contain the number and no unit.

Tell me the measured solubility (mole fraction) of "CC(=O)[O-].C[N+](C)(C)CCO" , please.
0.228

* * *

Run conditions: in ethanol, 286.1 K
Property measured: solubility (mole fraction)

Tell me the measured solubility (mole fraction) of "CC(=O)[O-].C[N+](C)(C)CCO" , please.
0.319

* * *

Run conditions: in n-propanol, 276 K
Property measured: solubility (mole fraction)
The response must contain the number and no unit.

Tell me the measured solubility (mole fraction) of "CC(=O)[O-].C[N+](C)(C)CCO" , please.
0.144

* * *

Run conditions: in n-butanol, 329.8 K
Property measured: solubility (mole fraction)
The response must contain the number and no unit.

Tell me the measured solubility (mole fraction) of "C[N+](C)(C)CCOC(=O)CCC(=O)O.[Cl-]" , please.
0.014

* * *

Run conditions: in n-propanol, 325.2 K
Property measured: solubility (mole fraction)

Tell me the measured solubility (mole fraction) of "C[N+](C)(C)CCOC(=O)CCC(=O)O.[Cl-]" , please.
0.02

* * *

Run conditions: in ethanol, 318.5 K
Property measured: solubility (mole fraction)
The response must contain the number and no unit.

Tell me the measured solubility (mole fraction) of "C[N+](C)(C)CCOC(=O)CCCC(=O)O.[Cl-]" , please.
0.012

* * *

Run conditions: in ethanol, 261.8 K
Property measured: solubility (mole fraction)
The response must contain the number and no unit.

Tell me the measured solubility (mole fraction) of "CC(=O)[O-].C[N+](C)(C)CCO" , please.
0.067

* * *

Run conditions: in ethanol, 265.7 K
Property measured: solubility (mole fraction)
The response must contain the number and no unit.

Tell me the measured solubility (mole fraction) of "CC(=O)[O-].C[N+](C)(C)CCO" , please.
0.112

* * *

Run conditions: in n-butanol, 287.7 K
Property measured: solubility (mole fraction)
The response must contain the number and no unit.

Tell me the measured solubility (mole fraction) of "CC(=O)[O-].C[N+](C)(C)CCO" , please.
0.209

* * *

Run conditions: in n-propanol, 299.2 K
Property measured: solubility (mole fraction)
The response must contain the number and no unit.

Tell me the measured solubility (mole fraction) of "C[N+](C)(C)CCOC(=O)CCC(=O)O.[Cl-]" , please.
0.006

* * *

Run conditions: in n-propanol, 338.5 K
Property measured: solubility (mole fraction)
The response must contain the number and no unit.

Tell me the measured solubility (mole fraction) of "C[N+](C)(C)CCOC(=O)CCCC(=O)O.[Cl-]" , please.
0.017

* * *

Run conditions: in ethanol, 315.6 K
Property measured: solubility (mole fraction)
The response must contain the number and no unit.

Tell me the measured solubility (mole fraction) of "C[N+](C)(C)CCOC(=O)CCC(=O)O.[Cl-]" , please.
0.028

* * *

Run conditions: in n-propanol, 282.7 K
Property measured: solubility (mole fraction)
The response must contain the number and no unit.

Tell me the measured solubility (mole fraction) of "CC(=O)[O-].C[N+](C)(C)CCO" , please.
0.269

* * *

Run conditions: in n-butanol, 352.9 K
Property measured: solubility (mole fraction)
The response must contain the number and no unit.

Tell me the measured solubility (mole fraction) of "C[N+](C)(C)CCO.[Cl-]" , please.
0.147

* * *

Run conditions: in ethanol, 320.5 K
Property measured: solubility (mole fraction)
The response must contain the number and no unit.

Tell me the measured solubility (mole fraction) of "C[N+](C)(C)CCOC(=O)CCC(=O)O.[Cl-]" , please.
0.038

* * *

Run conditions: in ethanol, 267.1 K
Property measured: solubility (mole fraction)
The response must contain the number and no unit.

Tell me the measured solubility (mole fraction) of "CC(=O)[O-].C[N+](C)(C)CCO" , please.
0.13

* * *

Run conditions: in n-butanol, 318.8 K
Property measured: solubility (mole fraction)
The response must contain the number and no unit.

Tell me the measured solubility (mole fraction) of "C[N+](C)(C)CCOC(=O)CCC(=O)O.[Cl-]" , please.
0.008

* * *

Run conditions: in n-butanol, 273 K
Property measured: solubility (mole fraction)
The response must contain the number and no unit.

Tell me the measured solubility (mole fraction) of "CC(=O)[O-].C[N+](C)(C)CCO" , please.
0.048

* * *

Run conditions: in ethanol, 276.4 K
Property measured: solubility (mole fraction)
The response must contain the number and no unit.

Tell me the measured solubility (mole fraction) of "C[N+](C)(C)CCO.[Cl-]" , please.
0.027

* * *

Run conditions: in ethanol, 305.5 K
Property measured: solubility (mole fraction)

Tell me the measured solubility (mole fraction) of "C[N+](C)(C)CCOC(=O)CCC(=O)O.[Cl-]" , please.
0.015

* * *

Run conditions: in n-butanol, 268.2 K
Property measured: solubility (mole fraction)

Tell me the measured solubility (mole fraction) of "CC(=O)[O-].C[N+](C)(C)CCO" , please.
0.023

* * *

Run conditions: in ethanol, 310.9 K
Property measured: solubility (mole fraction)

Tell me the measured solubility (mole fraction) of "C[N+](C)(C)CCOC(=O)CCC(=O)O.[Cl-]" , please.
0.02

* * *

Run conditions: in ethanol, 339.4 K
Property measured: solubility (mole fraction)
The response must contain the number and no unit.

Tell me the measured solubility (mole fraction) of "C[N+](C)(C)CCOC(=O)CCCC(=O)O.[Cl-]" , please.
0.055

* * *

Run conditions: in n-propanol, 280.9 K
Property measured: solubility (mole fraction)
The response must contain the number and no unit.

Tell me the measured solubility (mole fraction) of "CC(=O)[O-].C[N+](C)(C)CCO" , please.
0.234

* * *

Run conditions: in ethanol, 322 K
Property measured: solubility (mole fraction)
The response must contain the number and no unit.

Tell me the measured solubility (mole fraction) of "C[N+](C)(C)CCOC(=O)CCC(=O)O.[Cl-]" , please.
0.044

* * *

Run conditions: in n-propanol, 318.7 K
Property measured: solubility (mole fraction)
The response must contain the number and no unit.

Tell me the measured solubility (mole fraction) of "C[N+](C)(C)CCOC(=O)CCC(=O)O.[Cl-]" , please.
0.013

* * *

Run conditions: in n-butanol, 340.8 K
Property measured: solubility (mole fraction)
The response must contain the number and no unit.

Tell me the measured solubility (mole fraction) of "C[N+](C)(C)CCO.[Cl-]" , please.
0.086
